Tested on: biotinyl-Leu-oxazolone
test summary: self-aminoacylation, catalytic enhancement (BLO) (fold over background); higher = more active; k-Seq, kA / k0A0; sequences stand for … in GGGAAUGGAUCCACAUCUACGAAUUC…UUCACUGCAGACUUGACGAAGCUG
Variants at the floor of the assay were thinned out.
Label Met when self-aminoacylation is at or above 1; otherwise label Not met.

For orientation, consider the following solved cases.
item_sequence="CUACUUCAAACAAACGGUCUG [Fam1A.1 aminoacylation ribozyme variant]" class_assignment="Not met"
item_sequence="CCACACUUUAAGGAAUCGGUC [Fam1B.1 aminoacylation ribozyme variant]" class_assignment="Not met"
item_sequence="AUUACCCUGGACAUCGAGGGA [Fam2.1 aminoacylation ribozyme variant]" class_assignment=Met
item_sequence="AUUCACCUCGGUCAUCGGGUU [Fam2.2 aminoacylation ribozyme variant]" class_assignment=Met
item_sequence="AAUACCCUAGUCAUCGAGUGA [Fam2.1 aminoacylation ribozyme variant]" class_assignment=Met

*Q* Check this sequence for self-aminoacylation at or above 1: GCACACUUCAAACAAUCGGUC [Fam1B.1 aminoacylation ribozyme variant]
*A* Met

*Q* Check this sequence for self-aminoacylation at or above 1: AUUACUCUUGUCAUCGAGUGA [Fam2.1 aminoacylation ribozyme variant]
*A* Met

*Q* Check this sequence for self-aminoacylation at or above 1: GUACUUCAAAAAAUCGGUCUG [Fam1A.1 aminoacylation ribozyme variant]
*A* Met

*Q* Check this sequence for self-aminoacylation at or above 1: AUUCACCUGGAUCAUCGGGUG [Fam2.2 aminoacylation ribozyme variant]
*A* Met

*Q* Check this sequence for self-aminoacylation at or above 1: CUACUUCCAACAAUCGAUCUG [Fam1A.1 aminoacylation ribozyme variant]
*A* Not met

*Q* Check this sequence for self-aminoacylation at or above 1: CGAUUUCAAACAAUCGGUCUG [Fam1A.1 aminoacylation ribozyme variant]
*A* Met

*Q* Check this sequence for self-aminoacylation at or above 1: UUUCACCUAGGUCAUAGGGUG [Fam2.2 aminoacylation ribozyme variant]
*A* Met

----------
Entries and their measured self-aminoacylation follow.
System: biotinyl-Phe-oxazolone
test summary: self-aminoacylation, catalytic enhancement (BFO) (fold over background); higher = more active; k-Seq, kA / k0A0; sequences stand for … in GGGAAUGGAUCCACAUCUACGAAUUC…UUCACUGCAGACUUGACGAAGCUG
This sample holds only a part of the variants without activity.
Simply state the number, no unit and no words.

item_sequence="CCACUUCAAACCAUCGGUCUG [Fam1A.1 aminoacylation ribozyme variant]" experimental_value=1.49
item_sequence="AUUACCCUGGUCACCGAGUGG [Fam2.1 aminoacylation ribozyme variant]" experimental_value=7.88
item_sequence="GCACACUUCAAGCAACCGGUC [Fam1B.1 aminoacylation ribozyme variant]" experimental_value=2.92

Moving on to the next sequence.
Form: sequence = AUGCACGUAGGUCAUCGGGUG [Fam2.2 aminoacylation ribozyme variant] ; self-aminoacylation = 45.4

----------
Entries and their measured self-aminoacylation follow.
Tested on: biotinyl-Val-oxazolone
test summary: self-aminoacylation, catalytic enhancement (BVO) (fold over background); higher = more active; k-Seq, kA / k0A0; sequences stand for … in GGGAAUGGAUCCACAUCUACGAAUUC…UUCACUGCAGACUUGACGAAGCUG
Fewer inactive variants are shown than the library holds.
Simply state the number, no unit and no words.

The cases that follow already have their self-aminoacylation on record.
item_sequence="CUAUUUCAAACAAUUGGUCUG [Fam1A.1 aminoacylation ribozyme variant]" experimental_value=0.873
item_sequence="AUUGACCUCGGUCAUCGGGUG [Fam2.2 aminoacylation ribozyme variant]" experimental_value=3.69
item_sequence="AUUCACCUGGAUCAUCGGGUG [Fam2.2 aminoacylation ribozyme variant]" experimental_value=3.08
item_sequence="AAGUUUCCUAAUAGUCGUAAG [Fam3.1 aminoacylation ribozyme variant]" experimental_value=1.07
item_sequence="AGUCACCUAGGUAAUCGGGUG [Fam2.2 aminoacylation ribozyme variant]" experimental_value=2.75

Form: sequence = AAGUUUGCUAAUAGACGGAAG [Fam3.1 aminoacylation ribozyme variant] ; self-aminoacylation = 0.584

Form: sequence = ACACACUUCAAGCAAUCGCUC [Fam1B.1 aminoacylation ribozyme variant] ; self-aminoacylation = 1.92

Form: sequence = AUUAACCUGGUCAUCCAGUGA [Fam2.1 aminoacylation ribozyme variant] ; self-aminoacylation = 2.56

Form: sequence = GUUCACCUAGGUCAUCGCGUG [Fam2.2 aminoacylation ribozyme variant] ; self-aminoacylation = 6.96
